tested.on: SIK1 (Homo sapiens, UniProt P57059)
Construct: purchased Carna Biosciences 02-131
Sequence (P57059 whole entry): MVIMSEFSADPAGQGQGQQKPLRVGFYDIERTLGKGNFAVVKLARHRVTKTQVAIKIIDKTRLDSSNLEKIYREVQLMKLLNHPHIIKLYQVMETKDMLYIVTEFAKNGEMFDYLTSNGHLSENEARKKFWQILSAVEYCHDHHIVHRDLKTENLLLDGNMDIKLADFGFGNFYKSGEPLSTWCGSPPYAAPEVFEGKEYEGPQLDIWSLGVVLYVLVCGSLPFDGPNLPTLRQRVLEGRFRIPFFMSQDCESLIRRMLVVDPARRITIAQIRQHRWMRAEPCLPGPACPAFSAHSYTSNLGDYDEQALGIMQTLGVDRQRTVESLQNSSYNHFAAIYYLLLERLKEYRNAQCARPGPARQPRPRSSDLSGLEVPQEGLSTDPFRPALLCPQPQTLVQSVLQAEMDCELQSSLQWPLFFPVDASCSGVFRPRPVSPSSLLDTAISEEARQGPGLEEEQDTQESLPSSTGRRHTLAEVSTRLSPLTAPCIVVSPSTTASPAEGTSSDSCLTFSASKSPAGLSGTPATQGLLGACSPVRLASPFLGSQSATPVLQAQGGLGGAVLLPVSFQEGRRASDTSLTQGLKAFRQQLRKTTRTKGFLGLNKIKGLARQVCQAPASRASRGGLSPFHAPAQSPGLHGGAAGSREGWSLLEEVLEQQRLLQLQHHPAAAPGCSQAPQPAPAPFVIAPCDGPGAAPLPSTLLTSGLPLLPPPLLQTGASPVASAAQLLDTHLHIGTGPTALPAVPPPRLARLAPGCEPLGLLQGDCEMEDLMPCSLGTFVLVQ
measurement.notes: biochemical
assay.conditions: 33P radioactive SIK kinase assay, AMARA peptide, 10 μM ATP; read-out: SIK1 IC50
pIC50: −log10 of the molar value.
metric: pIC50

Below, each entry is followed by its recorded pIC50 result.
>>> df
                              record_smiles         result
0  CCNC(=O)c1c(OC)cc(-c2cnc3cc(-c4cnn(C(F)F)c4)ccn23)cc1OC(F)F  8.00 to 11.00
1  CCNC(=O)c1c(OC)cc(-n2cnc3cc(-c4noc(C)n4)ccc32)cc1OC(F)F         < 6.30
2  COc1cc(-n2cnc3cc(-c4cnn(C5CCN(C)CC5)c4)ccc32)cc(OC)c1C(=O)NCC(F)(F)F  8.00 to 11.00

Input: // returns reported pIC50 for input COc1ncc(-c2ccn3c(-c4cc(OC)c(C(=O)NCC(F)(F)F)c(OC)c4)cnc3c2)cn1
Output: 6.30 to 7.00

Input: Can you check COc1cc(-n2cnc3cc(-c4cnn(C)c4)ccc32)cc(OC)c1C(=O)N1CCC1 next?
Output: 6.30 to 7.00

Input: // query: COc1cc(-c2cnc3cc(-c4cn(C)nc4C(F)(F)F)ccn23)cc(OC)c1C(=O)NCC(F)(F)F
Output: 6.30 to 7.00

Input: Another: COc1cc(-n2cnc3cc(-c4ccc(N5CCCC5)nc4)ccc32)cc(OC)c1C(=O)NCC(F)(F)F
Output: 7.00 to 8.00

---

Test system: LPS triggered IL-10 secretion in monocyte-derived macrophages (MdM)
measurement.notes: MdM assay: LPS-triggered IL-10 (ELISA)
Format: cell-based, human
assay.conditions: maximal fold change vs LPS only, median across assays
metric: IL-10 FCmax median

>>> df
                              record_smiles              metric         result
0  COc1cc(-c2cnc3cc(-c4cnn(C)c4)ccn23)cc(OC)c1C(=O)NC1CC1  IL-10 FCmax median  ++ (>1.5-4.5)
1  CCn1cc(-c2cnc3c(-c4cc(OC)c(C(=O)NCC(F)(F)F)c(OC)c4)cnn3c2)cn1  IL-10 FCmax median  ++ (>1.5-4.5)
2  COc1cc(-c2cnc3cc(-c4cnn(C)c4)ccn23)cc(OC)c1C(=O)NCC(F)F  IL-10 FCmax median  ++ (>1.5-4.5)

---

Listed compounds paired with reported EC50
Test system: LPS-induced TNFα secretion in monocyte-derived macrophages (MdM)
measurement.notes: MdM assay: LPS-triggered TNFα (ELISA)
Assay type: cell-based, human
assay.conditions: Homo sapiens, Macrophage, LPS-triggered TNFα inhibition

These solved cases illustrate the format of a correct answer.
In [3]: df
Out[3]:
                              record_smiles         result
0  COc1cc(-c2cnc3cc(-c4cnn(C)c4)ccn23)cc(OC(F)F)c1C(=O)NC1CC1  0.1 to 100 nM
1  CCn1cc(-c2ccc3c(c2)ncn3-c2cc(OC)c(C(=O)NC3CC3)c(OC(F)F)c2)cn1  0.1 to 100 nM
2  COc1cc(-c2cnc3cc(-c4cn[nH]c4)ccn23)cc(OC)c1C(=O)NCC(F)(F)F  0.1 to 100 nM

Input: Requested read-out: EC50. Entry: COc1cc(-n2cnc3cc(-c4cnoc4)ccc32)cc(OC)c1C(=O)NCC(F)(F)F
Output: 100 to 1000 nM

---

tested.on: SIK2 (Homo sapiens, UniProt Q9H0K1)
Construct: purchased ThermoFisher Scientific PV4792
Sequence (Q9H0K1 whole entry): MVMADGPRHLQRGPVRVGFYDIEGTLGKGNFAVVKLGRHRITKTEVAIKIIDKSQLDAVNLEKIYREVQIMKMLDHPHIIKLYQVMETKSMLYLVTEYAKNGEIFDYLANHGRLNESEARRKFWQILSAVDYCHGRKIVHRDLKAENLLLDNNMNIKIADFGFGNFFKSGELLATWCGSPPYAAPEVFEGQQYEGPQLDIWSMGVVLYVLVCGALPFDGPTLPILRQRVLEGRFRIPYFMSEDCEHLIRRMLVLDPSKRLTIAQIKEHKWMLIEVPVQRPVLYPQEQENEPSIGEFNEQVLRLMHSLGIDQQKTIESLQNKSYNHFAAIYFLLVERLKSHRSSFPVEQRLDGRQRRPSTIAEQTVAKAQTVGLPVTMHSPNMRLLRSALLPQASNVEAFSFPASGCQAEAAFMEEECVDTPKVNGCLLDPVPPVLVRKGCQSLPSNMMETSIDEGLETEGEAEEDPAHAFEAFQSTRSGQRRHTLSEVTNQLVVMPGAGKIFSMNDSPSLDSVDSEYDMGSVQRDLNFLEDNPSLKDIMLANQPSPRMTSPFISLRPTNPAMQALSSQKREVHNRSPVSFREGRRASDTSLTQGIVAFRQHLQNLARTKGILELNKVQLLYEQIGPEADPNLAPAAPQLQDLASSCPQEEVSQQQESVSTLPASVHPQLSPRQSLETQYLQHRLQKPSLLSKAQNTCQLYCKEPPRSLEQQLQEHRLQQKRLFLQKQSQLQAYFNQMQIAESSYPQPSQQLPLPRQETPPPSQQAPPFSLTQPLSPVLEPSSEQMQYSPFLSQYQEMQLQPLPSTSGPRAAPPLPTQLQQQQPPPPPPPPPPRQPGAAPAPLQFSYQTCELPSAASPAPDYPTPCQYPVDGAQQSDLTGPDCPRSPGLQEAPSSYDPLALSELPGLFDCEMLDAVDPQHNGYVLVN
measurement.notes: biochemical
assay.conditions: 33P radioactive SIK kinase assay, AMARA peptide, 10 μM ATP
metric: IC50

Worked cases, IC50 given:
In [3]: df
Out[3]:
                                   molecule         result
0  COC(=O)C(C)n1cc(-c2ccn3c(-c4cc(OC)c(C(=O)NCC(F)(F)F)c(OC)c4)cnc3c2)cn1 (stereo not shown)  0.01 to 10 nM
1  CCNC(=O)c1c(OC)cc(-c2cnc3cc(-c4cnn(C)c4)ccn23)cc1OC(F)F  0.01 to 10 nM
2  COc1cc(-c2cnc3cc(-c4cnn(C)c4)ccn23)cc(NCCO)c1C(=O)NCC(F)(F)F  0.01 to 10 nM
3  COc1cc(-n2cnc3cc(-c4cnn(C)c4)ccc32)cc(OC)c1C(=O)N1CCC1CO (stereo not shown)       > 500 nM
4  COc1cc(-c2cnc3cc(-c4cnn(C)c4)ccn23)cc(OC(F)F)c1C(=O)NC1CC1  0.01 to 10 nM
5  COc1cc(-c2cnc3cc(-c4cnn(C)c4)ccn23)cc(OC)c1C(=O)N[C@H]1C[C@@H]1C(F)F  0.01 to 10 nM

Lab note: next molecule to report on.
Input: Name the reported IC50 value associated with the molecule COc1cc(-n2cnc3cc(-c4nnc(C)n4C)ccc32)cc(OC)c1C(=O)NCC(F)(F)F
Output: > 500 nM

---

System: LPS-induced TNFα secretion in monocyte-derived macrophages (MdM)
measurement.notes: MdM assay: LPS-triggered TNFα (ELISA)
Format: cell-based, human
assay.conditions: Homo sapiens, Macrophage, LPS-triggered TNFα inhibition
pEC50: −log10 of the molar value.
pEC50 overview

>>> print(df.to_string())
                                   compound                                 tested_on         result
0  COc1cc(-n2cnc3cc(-c4cnn(C)c4)ccc32)cc(OC)c1C(=O)N[C@H](C)C(F)(F)F [compound 58]  LPS-induced TNFα secretion in monocyte-derived macrophages (MdM)   6.00 to 7.00
1  CCNC(=O)c1c(OC)cc(-n2cnc3cc(-c4cccnc4)ccc32)cc1OC [compound 2]  LPS-induced TNFα secretion in monocyte-derived macrophages (MdM)   5.30 to 6.00
2  CCNC(=O)c1c(OC)cc(-c2cnc3cc(-c4cnn(C5CCNCC5)c4)ccn23)cc1OC(F)F [compound 149]  LPS-induced TNFα secretion in monocyte-derived macrophages (MdM)   6.00 to 7.00
3  COc1cc(-n2cnc3cc(-c4cn(C)cn4)ccc32)cc(OC)c1C(=O)NCC(F)(F)F [Cpd 137]  LPS-induced TNFα secretion in monocyte-derived macrophages (MdM)   6.00 to 7.00
4  COC(=O)CCCn1cc(-c2ccn3c(-c4cc(OC)c(C(=O)NCC(F)(F)F)c(OC)c4)cnc3c2)cn1 [compound 256]  LPS-induced TNFα secretion in monocyte-derived macrophages (MdM)  7.00 to 10.00

Pending compound:
Input: Would you kindly share the measured pEC50 for COc1cc(-n2cnc3cc(-c4cnn(C)c4)ccc32)cc(OC)c1C(=O)NCCN [compound 163] ?
Output: < 5.30

---

tested.on: SIK1 (Homo sapiens)
Construct: purchased Carna Biosciences 02-131
measurement.notes: biochemical
assay.conditions: 33P radioactive SIK kinase assay, AMARA peptide, 10 μM ATP; read-out: SIK1 IC50
IC50 values by entry

                                   molecule         result
0  COc1cc(-c2cnc3cc(-c4cnn(C)c4)ccn23)cc(C)c1C(=O)NCC(F)(F)F [Cpd 206]   10 to 100 nM
1  COc1cc(-n2cnc3cc(-c4cnn(C5CNC5)c4)ccc32)cc(OC)c1C(=O)NCC(F)(F)F [Cpd 94]  0.01 to 10 nM
2  COc1cc(-c2cnc3cc(-c4cccnc4OC)ccn23)cc(OC)c1C(=O)NCC(F)(F)F [compound 250]  100 to 500 nM
3  COc1cc(-n2cnc3cc(-c4cnn(C)c4)ccc32)cc(OC)c1C(=O)NC1CC1 [Cpd 86]   10 to 100 nM
4  COc1cc(-n2cnc3cc(-n4nc(C)cc4C)ccc32)cc(OC)c1C(=O)NCC(F)(F)F [Cpd 165]       > 500 nM

Input: I am curious: what IC50 value has been reported for COc1cc(-n2cnc3cc(-c4noc(C)n4)ccc32)cc(OC)c1C(=O)NCC(F)(F)F [Cpd 126] ?
Output: > 500 nM

Input: Same thing, different molecule: CCOC(=O)CCCn1cc(-c2ccn3c(-c4cc(OC)c(C(=O)NCC(F)(F)F)c(OC)c4)cnc3c2)cn1 [compound 257]
Output: 0.01 to 10 nM

---

tested.on: SIK1 (Homo sapiens)
Construct: purchased Carna Biosciences 02-131
measurement.notes: biochemical
assay.conditions: 33P radioactive SIK kinase assay, AMARA peptide, 10 μM ATP; read-out: SIK1 IC50
Items are presented alongside their recorded IC50.

In [3]: df
Out[3]:
                                   molecule            tested_on  metric         result
0  COc1cc(-n2cnc3cc(-c4cnn(CC#N)c4)ccc32)cc(OC)c1C(=O)NCC(F)(F)F [compound 40]  SIK1 (Homo sapiens)    IC50   10 to 100 nM
1  CCNC(=O)c1c(OC)cc(-c2cnn3cc(-c4cnn(C)c4)ccc23)cc1OC(F)F [compound 117]  SIK1 (Homo sapiens)    IC50  0.01 to 10 nM
2  CCn1cc(-c2ccc3c(c2)ncn3-c2cc(OC)c(C(=O)NCC#N)c(OC)c2)cn1 [compound 50]  SIK1 (Homo sapiens)    IC50   10 to 100 nM

Input: Recall the recorded IC50 for COc1cc(-n2cnc3cc(-c4cccnc4)ccc32)cc(OC)c1C(=O)NCC(F)(F)F [compound 39] with SIK1 (Homo sapiens) and state it.
Output: 100 to 500 nM
